# measured.on: Histidine decarboxylase (Rattus norvegicus) (UniProt P16453)
# Sequence (P16453 whole entry): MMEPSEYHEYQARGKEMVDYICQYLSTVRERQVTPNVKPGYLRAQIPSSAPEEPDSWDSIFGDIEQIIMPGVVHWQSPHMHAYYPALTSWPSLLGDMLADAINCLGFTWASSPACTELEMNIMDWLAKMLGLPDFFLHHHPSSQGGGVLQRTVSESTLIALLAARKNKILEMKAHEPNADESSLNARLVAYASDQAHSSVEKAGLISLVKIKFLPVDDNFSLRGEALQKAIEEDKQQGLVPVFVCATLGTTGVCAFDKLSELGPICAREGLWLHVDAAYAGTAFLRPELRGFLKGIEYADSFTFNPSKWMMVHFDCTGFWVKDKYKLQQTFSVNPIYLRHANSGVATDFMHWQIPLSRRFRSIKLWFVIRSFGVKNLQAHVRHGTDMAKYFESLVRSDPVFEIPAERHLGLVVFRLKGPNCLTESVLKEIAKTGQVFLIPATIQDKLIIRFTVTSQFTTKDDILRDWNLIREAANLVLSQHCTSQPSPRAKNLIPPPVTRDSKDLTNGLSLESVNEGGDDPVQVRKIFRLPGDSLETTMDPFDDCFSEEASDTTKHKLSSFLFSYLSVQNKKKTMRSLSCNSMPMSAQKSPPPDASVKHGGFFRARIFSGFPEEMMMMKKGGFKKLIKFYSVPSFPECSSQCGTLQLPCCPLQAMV
# assay.details: Inhibition of histidine decarboxylase in rat pyloric stomach using [carboxyl-14C]-histidine as substrate at 10^-4 M by 14CO2 trapping assay relative to control
# Type: tissue-based
reported.property: inhibition

Here are 3 compounds together with their reported answers.
{"compound.structure": "N[C@@]1(Cc2c[nH]cn2)CCOC1=O", "inhibition": "12%"}
{"compound.structure": "C[C@](N)(Cc1c[nH]cn1)C(=O)O", "inhibition": "30%"}
{"compound.structure": "CC(C)[C@](N)(Cc1c[nH]cn1)C(=O)O", "inhibition": "0%"}

Continue with the compound presented below.
Problem: Param readout= inhibition; system= Histidine decarboxylase (Rattus norvegicus) (UniProt P16453); entry= "CC[C@](N)(Cc1c[nH]cn1)C(=O)O" ; returns value.
Result: 6%
